Hey, just so you know, these numbers are from ChEMBL document CHEMBL3853343.

# experimentalDetails: Protein binding in guinea pig
# Format: ADME, Cavia porcellus
# statedConditions: read-out: PB (converted)
Measured fraction unbound accompanies every entry in the list below.
propertyName: fraction unbound

structure	propertyName	testResult
Cc1nc(C)c(-c2csc(Nc3ccc(C(=O)N4C5CCC4CN(c4ncc(C(F)(F)F)cn4)C5)cn3)n2)s1	fraction unbound	0.003
Cc1nc(C)c(-c2csc(Nc3ccc(C(=O)N4C5COCC4CC(=O)C5)cn3)n2)s1	fraction unbound	0.1

---

# experimentalDetails: Oral bioavailability in guinea pig at 20 mg/kg
# Type: ADME, organism-based, Cavia porcellus
# statedConditions: in vivo

structure	bioavailability
Cc1nc(C)c(-c2csc(Nc3ccc(C(=O)N4C5CCC4CN(c4ncc(C(F)(F)F)cn4)C5)cn3)n2)s1	44%

---

# experimentalDetails: AUC in rat at 1 mg/kg, po
# Type: ADME, organism-based
# statedConditions: in vivo
propertyName: AUC (ng·h/mL)

structure	propertyName	testResult
Cc1nc(C)c(-c2csc(Nc3ccc(C(=O)N4C5CCC4CN(c4ncc(C(F)(F)F)cn4)C5)cn3)n2)s1	AUC	900

---

# experimentalDetails: Volume of distribution at steady state in guinea pig at 1 mg/kg, iv
# Format: ADME, organism-based, Cavia porcellus
# statedConditions: in vivo, read-out: Vdss
propertyName: Vd (L/kg)

structure	propertyName	testResult
Cc1nc(C)c(-c2csc(Nc3ccc(C(=O)N4C5CCC4CN(c4ncc(C(F)(F)F)cn4)C5)cn3)n2)s1	Vd	11

---

# experimentalDetails: Plasma concentration in po dosed Dunkin-Hartley guinea pig complete Freund's adjuvant-induced mechanical hyperalgesia model measured up to 6 hrs post dose
# Assay type: ADME, organism-based, Cavia porcellus

structure	readingUnit	concentration at 6 h
Cc1nc(C)c(-c2csc(Nc3ccc(C(=O)N4C5COCC4CC(=O)C5)cn3)n2)s1	ng/mL	515

---

# experimentalDetails: Plasma concentration in Dunkin-Hartley guinea pig complete Freund's adjuvant-induced mechanical hyperalgesia model at 1 mg/kg, po after 5 hrs
# Format: ADME, organism-based, Cavia porcellus
propertyName: concentration at 5 h

structure	testResult
Cc1nc(C)c(-c2csc(Nc3ccc(C(=O)N4C5CCC4CN(c4ncc(C(F)(F)F)cn4)C5)cn3)n2)s1	0.0212 µg/mL

---

# testedTarget: Transient receptor potential cation channel subfamily V member 4 (Homo sapiens, UniProt Q9HBA0)
# Sequence (Q9HBA0 whole entry): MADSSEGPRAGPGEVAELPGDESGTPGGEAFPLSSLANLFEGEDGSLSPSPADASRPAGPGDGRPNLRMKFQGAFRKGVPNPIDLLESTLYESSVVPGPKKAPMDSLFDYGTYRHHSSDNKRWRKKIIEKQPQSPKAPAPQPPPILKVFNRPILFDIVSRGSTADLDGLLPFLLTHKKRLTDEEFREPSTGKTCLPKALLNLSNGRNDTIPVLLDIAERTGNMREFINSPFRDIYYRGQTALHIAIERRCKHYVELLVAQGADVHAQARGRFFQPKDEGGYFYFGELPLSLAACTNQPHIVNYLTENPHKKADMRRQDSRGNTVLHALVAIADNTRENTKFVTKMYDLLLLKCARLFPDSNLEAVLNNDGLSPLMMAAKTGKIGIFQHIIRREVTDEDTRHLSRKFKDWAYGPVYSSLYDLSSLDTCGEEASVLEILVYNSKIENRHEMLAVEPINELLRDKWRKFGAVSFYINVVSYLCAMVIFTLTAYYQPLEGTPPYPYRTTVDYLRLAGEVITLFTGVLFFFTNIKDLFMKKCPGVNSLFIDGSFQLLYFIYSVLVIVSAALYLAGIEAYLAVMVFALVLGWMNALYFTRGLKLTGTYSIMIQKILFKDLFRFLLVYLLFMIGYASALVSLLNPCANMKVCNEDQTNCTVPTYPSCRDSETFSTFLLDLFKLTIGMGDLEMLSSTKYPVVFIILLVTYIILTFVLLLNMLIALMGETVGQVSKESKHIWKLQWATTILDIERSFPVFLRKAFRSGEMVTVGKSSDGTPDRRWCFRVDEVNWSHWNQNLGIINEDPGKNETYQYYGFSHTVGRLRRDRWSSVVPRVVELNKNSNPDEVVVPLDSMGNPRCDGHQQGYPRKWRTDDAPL
# experimentalDetails: Antagonist activity at human TRPV4 assessed as inhibition of 4alpha-PDD-induced activation
pIC50: −log10 of the molar value.

structure	pIC50
COC(=O)N1CC2CCC(C1)N2C(=O)c1ccc(Nc2nc(-c3sc(C)nc3C)cs2)nc1	8.77
CNC(=O)N1CC2CCC(C1)N2C(=O)c1ccc(Nc2nc(-c3sc(C)nc3C)cs2)nc1	6.11
Cc1nc(C)c(-c2csc(Nc3ccc(C(=O)N4[C@@H]5CC[C@H]4C[C@@H](N)C5)cn3)n2)s1	6.28
Cc1nc(C)c(-c2csc(Nc3ccc(C(=O)N4[C@@H]5CC[C@H]4C[C@@H](Oc4ncc(C(F)(F)F)cn4)C5)cn3)n2)s1	8.32

---

# experimentalDetails: Metabolic stability in human hepatocytes assessed as parent compound remaining after 1 hr
# Format: ADME, cell-based, Hepatocyte
# statedConditions: read-out: Stability
propertyName: remaining at 1 h (%)

structure	testResult
Cc1nc(C)c(-c2csc(Nc3ccc(C(=O)N4C5CCC4CN(c4ncc(C(F)(F)F)cn4)C5)cn3)n2)s1	91
